// data source = PubChem BioAssay (NCI)

System: SR leukemia
PROCEDURE TEXT: NCI tumour cell line growth inhibition, 48 h
TGI overview
MEASURED PARAMETER: TGI (µM)

O=C1N=c2ccccc2=C1c1c(O)[nH]c2ccccc12 = 17.8
C[As](C)SC1OC(CO)C(O)C1O (centres undefined) = 3.13
Oc1[nH]c2ccccc2c1N=Nc1ccccc1Cl = 34.3
CC(C)(C)C(=O)OCOP(=O)(OCOC(=O)C(C)(C)C)C1CCCN(O)C1=O (centres undefined) = 7.87
Cc1ccc(Cl)cc1Nc1nc(C(F)(F)F)ccc1C(=O)N1CCN(c2ccc(F)cc2)CC1 = 80.6
C=C1CC(c2ccc(OCCCN3C(=O)c4ccccc4C3=O)c(OC)c2)OC1=O (centres undefined) = 2.72
Cc1nc2ccccc2c(=O)n1NC(=O)c1ccc(CS)cc1 = 43.1
C[N+](C)([O-])CCC=C1c2ccccc2CCc2ccccc21 = 39.3
Cc1ccc(SC(C)/C=C/NNC2=NC(c3ccccc3)C(c3ccccc3)=NN2)cc1 (centres undefined) = 65.1
Cc1ccc(S(=O)(=O)N/N=C/C(=C/c2ccc(Cl)cc2)CC(/C=N/NS(=O)(=O)c2ccc(C)cc2)=C\c2ccc(Cl)cc2)cc1 = 24.5
C=C(C=O)[C@@H]1C2OC(=O)C(=C)[C@@H]2CC(O)[C@@]1(C)CC (some centres undefined) = 12.3
C=C(F)C(=O)N1CCN(c2nc(OC[C@@H]3CCCN3C)nc3c2CCN(c2cccc4cccc(Cl)c24)C3)C[C@@H]1CC#N = 2.6
COC(=O)C1=C(c2ccc3c(c2)OCO3)O[C@H](c2cc(OC)c(OC)c(OC)c2)[C@H]1COC(C)=O = 70.3
O=Cc1ccc2c(c1)CC1(C2)Cc2ccc3c(c2C1)CCC3 (centres undefined) = 18.3

====

Test system: SN12C renal
PROCEDURE TEXT: NCI tumour cell line growth inhibition, 48 h; in the data active = GI50 below about 0.43 µM; inactive = the rest
Classes used: active, inactive

COc1ccc2c(c1)CCC1C2CC[C@@]2(C)C1CC1=CC(COC(C)=O)C3C(=O)c4ccccc4C(=O)C3C12 (stereo partly specified) = inactive
Clc1coc2nc3ccccc3c(Nc3ccc4c(c3)OCO4)c12 = inactive
COc1ccc(C(=O)c2cc(OC)c(C)c(OC)c2)cc1OC(=O)CCl = inactive
COc1ncnc(C2CC2)c1-c1ncc2cnn(Cc3ccc(-c4nc(C(F)(F)F)cn4C(C)C)cc3)c2n1 = inactive
O=[N+]([O-])c1ccc(C=C2C(Cl)=C(Cl)C(Cl)=C2Cl)cc1 = inactive
CC1OC2CC(=O)OC2C2=C1C(=O)c1c(O)cccc1C2=O (stereo unspecified) = active
COc1ccc2c(c1)C(C)Cc1c(Cl)ncnc1N2C (stereo unspecified) = inactive
Cc1ccc2c(n1)C(=O)c1[nH]c3ccccc3c1C2=O = inactive
C=CC1CC12C(=O)C1OC2(C)C2C(=O)c3cc4ccccc4cc3C(=O)C12 (stereo unspecified) = inactive
CC(=O)OC1Oc2ccccc2-c2oc(=O)c(-c3cc(=O)oc4cc(O)ccc34)cc21 (stereo unspecified) = inactive
C[As](C)SC1OC(CO)C(O)C1O (stereo unspecified) = active

====

System: SNB-19 CNS
PROCEDURE TEXT: NCI tumour cell line growth inhibition, 48 h
MEASURED PARAMETER: TGI

CC(=O)OCc1cc(CCC(=O)NCCNc2c3ccccc3nc3ccccc23)cc(COC(C)=O)c1O[Si](C)(C)C(C)(C)C = 31.2 µM
C=CC(Br)(CBr)CCC(Cl)C(C)C (stereo unspecified) = 6.82 µM
C=C(CCCCC)CN1CCCC1[C@@](C)(O)CC(=O)OCC (stereo partly specified) = > 100 µM
Cc1ccc(S(=O)(=O)NCC2CCCCC2=O)cc1 (stereo unspecified) = > 100 µM
Cc1cc2nc3c(C#N)c(-c4ccccc4)cc(Nc4ccc(Cl)cc4)n3c2cc1C = > 100 µM
C=C1C[C@@H]2O[C@H]3[C@H]4[C@@H](C[C@@H](C)[C@@H](OC(C)=O)[C@H]42)[C@@H](C)CO[C@@]3(C)[C@H](OC(C)=O)C[C@H]1O = > 100 µM
Oc1ccc2ccccc2c1/C=C/c1ccc2c(Br)cc(Br)c(O)c2n1 = 25.1 µM
O=C(OCc1ccc2cccc(O)c2n1)N1CCN(C(=O)c2cc3cc(F)ccc3[nH]2)CC1 = 2.92 µM
O=C(OC(=O)n1ccc2ccccc21)n1ccc2ccccc21 = > 100 µM
CC(=O)Oc1cccc2c(/C=N/NC(N)=S)ncc(C)c12 = 16.3 µM
CC(=O)OC1CCC2(C)C3CCC4(C)C(c5ccc(=O)oc5)CC5OC54C3CCC2(O)C1 (stereo unspecified) = 31.8 µM
CCC(C)(C)/C(CC(O)(C(F)(F)F)C(F)(F)F)=N\O = > 100 µM
NS(=O)(=O)c1nn2c(Br)c(-c3ccccc3)nc2s1 = 22.8 µM
Cc1cc(C)c(S(=O)(=O)N2CCCN(S(=O)(=O)c3c(C)cc(C)cc3C)OCCCON(S(=O)(=O)c3c(C)cc(C)cc3C)CCCN(S(=O)(=O)c3c(C)cc(C)cc3C)OCCCO2)c(C)c1 = > 100 µM
O=C(NCCCCCCNC(=O)c1cccc2ccccc12)Nc1cccc2ccccc12 = > 100 µM
COC(=O)Cc1cc(O)c(C/C=C(\C)CC/C=C(\C)C(O)C(=O)C=C(C)C)cc1O (stereo unspecified) = 86 µM
CC1OC(n2cc(F)c(=O)[nH]c2=O)C=CC1O (stereo unspecified) = > 100 µM
COc1ccc(C(=O)c2cc(OC)c(C)c(OC)c2)cc1OC(=O)CCl = > 100 µM
CC1CC(N)=Nc2ccccc2N1 (stereo unspecified) = > 100 µM
Nc1nc(N)c2[nH]c(CNc3ccc(C(=O)O)cc3)nc2n1 = > 100 µM
COC(C)(C)C1=CCC(C)CC1 (stereo unspecified) = > 100 µM
